Biological target: C-X-C chemokine receptor type 2 (Homo sapiens, UniProt P25025)
Sequence (P25025 whole entry): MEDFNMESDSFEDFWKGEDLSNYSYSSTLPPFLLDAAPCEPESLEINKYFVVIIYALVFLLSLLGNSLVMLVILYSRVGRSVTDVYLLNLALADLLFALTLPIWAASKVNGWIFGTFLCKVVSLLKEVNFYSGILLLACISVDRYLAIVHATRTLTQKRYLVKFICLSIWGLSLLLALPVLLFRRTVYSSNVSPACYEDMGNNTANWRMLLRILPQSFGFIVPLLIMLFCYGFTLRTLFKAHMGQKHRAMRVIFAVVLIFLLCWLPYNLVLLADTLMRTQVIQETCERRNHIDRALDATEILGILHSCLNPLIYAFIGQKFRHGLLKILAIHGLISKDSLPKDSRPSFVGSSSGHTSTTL
Assay: Antagonist activity at CXCR2 (unknown origin)
Format: functional
Attribute measured: pIC50
pIC50 here: minus log base 10 of the concentration, concentration in moles per litre.

Specify reported pIC50 for the compound shown: C[C@@H](C(=O)NS(C)(=O)=O)c1ccc(OS(=O)(=O)C(F)(F)F)cc1 [LADARIXIN]
9.15

Specify reported pIC50 for the compound shown: O=C(Nc1ccc(F)cc1)c1cnc(SCc2cc(OC(F)(F)F)ccc2B(O)O)nc1 [SX-682]
7.66
